# condition: in methyl acetate, 318.15 K
readout label: solubility (mole fraction)
# answer = number (no unit)

Short answer for CCOc1ccc(OCC)cc1 : solubility (mole fraction) was 0.347

----------
# condition: in ethanol, 293.15 K
readout label: solubility (mole fraction)

Measured solubility (mole fraction), CCOc1ccc(OCC)cc1 : 0.0119

----------
# condition: in isobutyl acetate, 303.15 K
readout label: solubility (mole fraction)
API doc: respond with a numeric literal and nothing else, no unit.

Data point: CCOc1ccc(OCC)cc1 ; solubility (mole fraction) = 0.145

----------
# condition: in acetonitrile, 283.15 K
readout label: solubility (mole fraction)

molecule CCOc1ccc(OCC)cc1 , solubility (mole fraction) observed: 0.0265
